- Test system: NCI-H460
- TEST_SUMMARY: NCI tumour cell line growth inhibition, 48 h
Active and inactive are the calls of the source. No stated cut-off is given here; in the data, active = GI50 up to about 1.1 µM and inactive = higher.
Outcome codes: Y = active, N = inactive

| COMPOUND | LABEL_CLASS |
| --- | --- |
| Cc1c2ncccc2c(C)c2c1[nH]c1ccccc12 | N |
| CS(=O)(=O)N(CCC#N)c1ccc(/C=N/NC(=O)CC(=O)Nc2cccc(Cl)c2)cc1 | N |
| COc1cc2c(/C=C3/C(=O)N(C)c4ccccc43)c(Cl)[nH]c2cc1C | Y |
| COC(=O)c1ccccc1C#CCCCOS(C)(=O)=O | N |
| CC(C)(C)[Si](C)(C)OC1/C(=C/C#N)C(n2ccc(=O)[nH]c2=O)OC1CO (stereo not given) | N |
| CCOC(=O)c1cc(Br)c(-c2cc(C)co2)[nH]1 | N |
| CS(=O)(=O)c1nc(N)nc2nc[nH]c12 | N |
| N=C(N)c1ccc(/C=C/c2ccc(C(=N)N)cc2)cc1 | N |
| CN(c1c(Cl)cccc1Cl)S(=O)(=O)c1ccccc1[N+](=O)[O-] | N |
| O=C(COc1ccccc1Cl)N1N=C(c2ccc(Cl)cc2)CC1(O)c1ccccc1 (stereo not given) | N |

---

- System: NCI/ADR-RES
- TEST_SUMMARY: NCI tumour cell line growth inhibition, 48 h
Calls of active or inactive are those of the source. Rule as the data show it: active = GI50 up to about 1.1 µM and inactive = higher.
Outcome codes: active, inactive

| COMPOUND | TGT | LABEL_CLASS |
| --- | --- | --- |
| O=C(N/N=C\C(F)(F)F)c1ccncc1 | NCI/ADR-RES | inactive |
| Cc1ccc(S(=O)(=O)N2CCN3C(=O)c4ccccc4C32c2ccc(F)cc2)cc1 (stereo not drawn) | NCI/ADR-RES | inactive |
| COc1ccc(OC)c(C(=O)/C=C/c2cc(O)c(O)cc2F)c1 | NCI/ADR-RES | active |
| OC1NC2Nc3ccccc3NC2NC1O (stereo not drawn) | NCI/ADR-RES | inactive |
| COC(=O)[C@H](C)NC(=O)[C@H](CSC)N1C(=O)N[C@@H](C(C)C)C1=O | NCI/ADR-RES | inactive |
| CCCNc1ncnc2c1ncn2C | NCI/ADR-RES | inactive |
| S=C1CSc2c(cnc3ccccc23)N1 | NCI/ADR-RES | inactive |
| Oc1ccc(C(c2ccc(O)cc2)c2ccc(O)cc2)cc1 | NCI/ADR-RES | inactive |
| CC(Br)CN1CCOCC1 (stereo not drawn) | NCI/ADR-RES | inactive |
| COc1nc(N)nc2c1ncn2C1CC(O)C(CO)O1 (stereo not drawn) | NCI/ADR-RES | inactive |
| N#Cc1c2c([nH]c(=O)c1C#N)CCCC2 | NCI/ADR-RES | inactive |
| O=C(Cc1csc(N/N=C2\C(=O)Nc3ccccc32)n1)Nc1ccccc1 | NCI/ADR-RES | inactive |
| Nc1ncnc2c1sc1nc3ccccc3n12 | NCI/ADR-RES | inactive |
| Cc1nnc2sc(Cc3cnc(N)s3)nn12 | NCI/ADR-RES | inactive |
| Nc1n2nc(-c3ccccc3)sc2n[n+]1CC(=O)c1ccccc1 | NCI/ADR-RES | inactive |
| CN(C)Cc1cc(/N=N/c2ccc(Cl)cc2)ccc1O | NCI/ADR-RES | inactive |
| O=C1NC(=S)NC(=O)C1C(c1ccc(Cl)cc1)C1C(=O)NC(=S)NC1=O.c1ccncc1 | NCI/ADR-RES | inactive |
| CC(=O)O[C@H]1CCC2[C@@H]3CC[C@]4(C)CC(=O)C=C[C@]4(C)C3CC[C@@]21C (stereo partly drawn) | NCI/ADR-RES | inactive |

---

- System: MCF7
- TEST_SUMMARY: NCI tumour cell line growth inhibition, 48 h
Active and inactive are the calls of the source. Rule as the data show it: active = GI50 up to about 1.1 µM and inactive = higher. Residues, ends and D or L forms follow the SMILES beside them. *: point of attachment. Cbz = O=C(OCc1ccccc1)*
Outcome codes: active, inactive

| COMPOUND | LABEL_CLASS |
| --- | --- |
| C[C@@H]1CCC2C(C)(C)C(/C=C\C=O)C3(C)OC213 (stereo partly drawn) | inactive |
| CCOC(=O)c1c[nH]c2c(Sc3ccccc3)nccc2c1=O | inactive |
| CC(NC(=O)C(NC(=O)OCc1ccccc1)C(C)C)C(=O)NCC(=O)O (stereo not drawn) (Cbz-Val-Ala-Gly-OH; configuration not given here) | inactive |
| CNc1ncnc2c1ncn2C1C=CC(COS(N)(=O)=O)C1 (stereo not drawn) | inactive |
| CCN(CC)C(=S)SS(=O)(=O)c1ccccc1C(=O)O | active |
| N/C(=N/c1ccc(O)cc1)S(=O)(=O)O | inactive |
| O=C(NNCC(O)COc1ccccc1)c1ccccc1 (stereo not drawn) | inactive |
| CCC(C)[C@H](NC(=O)[C@H](Cc1ccccc1)NC(=O)N(CC)c1ccccc1)C(=O)N[C@@H](CC(C)C)C(=O)OC (stereo partly drawn) | inactive |
| O=c1c2ccc(Cl)cc2oc2c(CNc3ccc(S(=O)(=O)Nc4nccs4)cc3)cccc12 | inactive |
| N#Cc1ncn(CCO)c1N | inactive |
| CC(=O)c1ccc(Br)cc1NC1=CC(=O)c2ncccc2C1=O | inactive |
| CC(=O)/N=S(/NC(=O)c1ccc(C)cc1)C(Cl)(Cl)Cl (stereo not drawn) | inactive |
| Cc1c2cccc-2c(N(C)C)cc2c1[nH]c1ccccc12 | inactive |
| N/C(=N\c1ccc(Cl)cc1)NS(=O)(=O)c1c(C(F)(F)F)cccc1C(F)(F)F | inactive |
| NC(Cc1ccccc1)(C(=O)O)C(=O)O | inactive |
| COC(=O)C1CN=CN1CCc1ccccc1 (stereo not drawn) | inactive |
| COC1(OC)c2no[n+]([O-])c2C(OC)(OC)c2c1no[n+]2[O-] | inactive |
| O1C2C1C1OC1C1OC1C1OC21 (stereo not drawn) | inactive |

---

GI50: recorded values
- Tested on: RXF 393
- TEST_SUMMARY: NCI tumour cell line growth inhibition, 48 h
The source made the active and inactive calls. Rule as the data show it: active = GI50 up to about 1.1 µM and inactive = higher.

| MOLECULE | GI50 |
| --- | --- |
| OCCCCCNc1ccnc2cc(Cl)ccc12 | > 100 µM (inactive) |
| COc1cc(C)cc2c(-c3c(O)cc(O)c4c3C[C@H](C)N[C@H]4C)cc(-c3cc(-c4c(O)cc(O)c5c4C[C@H](C)N[C@H]5C)c4cc(C)cc(OC)c4c3O)c(O)c12 | > 100 µM (inactive) |
| COc1ccc(OC)c(C(=O)/C=C/c2cc(O)c(O)cc2F)c1 | 1.37 µM (inactive) |
| N#CC(C(=O)CCC(=O)Nc1ccc(Cl)c(Cl)c1)c1ccccc1 (centres undefined) | > 100 µM (inactive) |

---

GI50: recorded values
- Tested on: MOLT-4
- TEST_SUMMARY: NCI tumour cell line growth inhibition, 48 h
Activity calls are given as the source filed them. Cut-off read from the data, not from the text of the source: active = GI50 up to about 1.1 µM and inactive = higher.
RECORDED_METRIC: GI50

| COMPOUND | RECORDED_METRIC | ASSAY_RESULT |
| --- | --- | --- |
| C=C(C(=O)O)[C@@H]1C[C@@H](OC(C)=O)[C@]2(C)CC/C=C(\C)CCC[C@H](C)[C@H](O)[C@@H]1O2 | GI50 | 24.7 µM (inactive) |
| CN(C)c1ccc(/C=c2/c3ccccc3n3nc4ccccc4c23)cc1 | GI50 | 17 µM (inactive) |
| Cc1ccc([S+]([O-])C[C@](NC(=O)OCc2ccccc2)(Sc2ccccc2)C(F)F)cc1 (stereo not given in full) | GI50 | 3.4 µM (inactive) |
| Cc1ccc(S(N)(=O)=O)cc1 [P-TOLUENESULFONAMIDE] | GI50 | > 1000 µM (inactive) |
| COc1ccc(/C(=C/n2ccnc2)C(O)c2ccc(OC)c(OC)c2)cc1OC (stereo not given) | GI50 | > 100 µM (inactive) |
| O=C(Nc1ccc(Cl)c(Cl)c1)OCCN1c2ccccc2Sc2ccccc21 | GI50 | > 10 µM (inactive) |
| O=c1[nH]nc(-c2ccccc2)n1/N=C\CC/C=N\n1c(-c2ccccc2)n[nH]c1=O | GI50 | 20.1 µM (inactive) |
| CNc1ncnc2c1ncn2C1C=CC(COS(N)(=O)=O)C1 (stereo not given) | GI50 | > 100 µM (inactive) |
| CCCC(=O)c1c(NOC2OC(COC(C)=O)C(OC(C)=O)C(OC(C)=O)C2OC(C)=O)nc(OC)n(C)c1=O (stereo not given) | GI50 | > 100 µM (inactive) |
| O=Cc1cc2sc(C=O)cc2s1 | GI50 | > 100 µM (inactive) |
| CC(=O)c1ccc(Br)cc1NC1=CC(=O)c2ncccc2C1=O | GI50 | 2.29 µM (inactive) |
| CCCCCCCCCCCCOC(=S)NC | GI50 | 13.1 µM (inactive) |
| COc1ccc2[nH]c3c(c2c1)COc1ccccc1C3=O | GI50 | > 100 µM (inactive) |
| COc1ccc(-c2cc(=O)c3ccc(O)cc3o2)cc1OC | GI50 | 25.6 µM (inactive) |
| N#Cc1ncn(CCO)c1N | GI50 | > 100 µM (inactive) |
| Cc1cc(C)c(/C=N/NS(=O)(=O)c2ccccc2)c(C)c1 | GI50 | 44.7 µM (inactive) |
| O=C1NC(=S)NC(=O)C1C(c1ccc(Cl)cc1)C1C(=O)NC(=S)NC1=O.c1ccncc1 | GI50 | > 100 µM (inactive) |
| CC(C)=C[C@H]1CCC2(OCCO2)[C@]1(C)COCc1ccccc1 | GI50 | 13.8 µM (inactive) |
| Cc1ccc2ccc(-c3ccccc3)c3c2c1C(=O)c1ccccc1C3=O | GI50 | > 100 µM (inactive) |
| CC(=O)NC(CCCNC(=O)NCCCl)C(=O)NCc1ccccc1 (stereo not given) | GI50 | > 100 µM (inactive) |
| CC1=C(C(=O)CC(=O)C(=O)Nc2cc(C)ccc2C)Sc2ccccc2N1 | GI50 | 66.7 µM (inactive) |
| Br[C@@H]1[C@H]2c3nc4ccccc4nc3[C@@H]1C[C@H]2Br | GI50 | 31.7 µM (inactive) |
| Cc1cc(S(=O)(=O)NC2=Nc3ccccc3C(c3ccccc3)N2)c(S)cc1Cl (stereo not given) | GI50 | 81.8 µM (inactive) |
| CC(C)(C)[Si](C)(C)OCCOCn1cc(F)c(=O)[nH]c1=O | GI50 | > 100 µM (inactive) |
| Oc1nnnc2c1sc1ncccc12 | GI50 | > 100 µM (inactive) |
| O=C(/C=C/c1cccc(Oc2ccccc2)c1)NCc1ccc(C(=O)NCc2ccccc2)cc1 | GI50 | > 100 µM (inactive) |
| O=C(Nc1ccn(C2CC(I)C(COC(c3ccccc3)(c3ccccc3)c3ccccc3)O2)c(=O)n1)c1ccccc1 (stereo not given) | GI50 | 4.13 µM (inactive) |
| CCNc1ncnc2sc(SCc3ccccc3)nc12 | GI50 | 25.9 µM (inactive) |
| CC1(C)C2C/C(=C\c3ccccc3)C(=O)C1C2 (stereo not given) | GI50 | 56.9 µM (inactive) |
| CCCC(=O)c1c(NOC2OCC(OC(C)=O)C(OC(C)=O)C2OC(C)=O)nc(OC)n(C)c1=O (stereo not given) | GI50 | > 100 µM (inactive) |
